- experimental_target: Serine/threonine-protein kinase PLK1 (Homo sapiens)
- protocol_description: Inhibition of 5-carboxyfluoresceinGPMQSpTPLNG-OH peptide binding to human PLK1 (326 to 603 residues) PBD expressed in Rosetta BL21 (DE3) cells preincubated for 1 hrs with compound followed by peptide addition and measured immediately by fluorescence polarization assay
endpoint: pIC50
Give bare numbers, as −log10 of the molar value.

Q. Entry N#Cc1cccc(CN2C[C@@H]3C[C@H](C2)c2c(-c4ccc5ccccc5c4)ccc(=O)n2C3)c1 : reported pIC50 = ?
A. 4.75

====

- experimental_target: Serine/threonine-protein kinase PLK1 (Homo sapiens, UniProt P53350)
- Sequence (P53350 whole entry, the tested form may be a part): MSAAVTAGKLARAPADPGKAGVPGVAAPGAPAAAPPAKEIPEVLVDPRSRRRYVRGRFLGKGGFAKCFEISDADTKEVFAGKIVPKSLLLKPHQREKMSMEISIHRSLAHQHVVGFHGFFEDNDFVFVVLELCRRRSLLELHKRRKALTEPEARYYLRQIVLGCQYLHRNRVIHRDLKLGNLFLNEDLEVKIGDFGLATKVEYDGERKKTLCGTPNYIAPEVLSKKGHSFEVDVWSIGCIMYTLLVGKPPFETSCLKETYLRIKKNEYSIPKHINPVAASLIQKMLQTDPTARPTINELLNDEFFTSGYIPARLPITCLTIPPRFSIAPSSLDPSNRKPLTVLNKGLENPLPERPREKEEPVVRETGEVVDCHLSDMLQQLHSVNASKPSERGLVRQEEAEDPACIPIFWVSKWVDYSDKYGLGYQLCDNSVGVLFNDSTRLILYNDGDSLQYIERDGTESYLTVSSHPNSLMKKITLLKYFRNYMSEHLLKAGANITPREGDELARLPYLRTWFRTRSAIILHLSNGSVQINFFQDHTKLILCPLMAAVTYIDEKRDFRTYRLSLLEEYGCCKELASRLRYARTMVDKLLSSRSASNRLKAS
- protocol_description: Inhibition of PLK1 PBD (unknown origin) dependent binding
endpoint: IC50 (µM)
One number for each entry, in µM.

| sample_smiles | experimental_target | unit_info | IC50 |
| --- | --- | --- | --- |
| CCCCCCCCCC1=CO[C@]2(C[C@H](C(=O)O)[C@@](CC(=O)O)(C(=O)OCCCC)O2)C1=O | Serine/threonine-protein kinase PLK1 (Homo sapiens, UniProt P53350) | µM | 102 |

Q. So what IC50 did CCCCCCCCCC1=CO[C@]2(C[C@H](C(=O)O)[C@@](CC(=O)O)(C(=O)O)O2)C1=O get with Serine/threonine-protein kinase PLK1 (Homo sapiens, UniProt P53350)?
A. 128
